Reported growth by item:
test system: OVCAR-5 ovarian; test: NCI-60 one-dose screen, 48 h (100 = growth as untreated, 0 = no growth, -100 = all killed); conditions: 10 µM unless noted
The panel holds about 83,000 compounds, 20% with a hit somewhere; the sample as a whole holds those more often.
quantity measured: growth (%)

- compound structure string: "O=C(CCN1CCOCC1)Nc1ccc(Cn2nnc3c2C(=O)c2nnn(Cc4ccc(NC(=O)CCN5CCOCC5)cc4)c2C3=O)cc1"
  quantity measured: "growth"
  measurement: 110
- compound structure string: "Nc1ccc(N2CCOCC2)cc1"
  quantity measured: "growth"
  measurement: 91.7
- compound structure string: "C=CCSc1nnc(-c2ccc(C(C)(C)C)cc2)n1-c1cccc(C(F)(F)F)c1"
  quantity measured: "growth"
  measurement: 77.3
- compound structure string: "Cc1ccc(-c2nc(/C=N/Nc3cc(C)nc4ccc(Cl)cc34)c(C)o2)cc1"
  quantity measured: "growth"
  measurement: -65.4
- compound structure string: "Cc1cc(Nc2nc(N3CCOCC3)nc3ccccc23)n[nH]1"
  quantity measured: "growth"
  measurement: 88.7

----------
test system: SNB-19 CNS; assay: NCI-60 one-dose screen, 48 h (100 = growth as untreated, 0 = no growth, -100 = all killed); details: 10 µM unless noted
The panel holds about 83,000 compounds, 20% with a hit somewhere; the sample as a whole holds those more often. Active and inactive are the calls of the source. How the source made its calls: active means growth percent below 10; inactive means the rest.

- compound: "O=C(O)c1cn(C2CC2)c2cc(N3CCN(Cc4nc5c(cnn5-c5ccc([N+](=O)[O-])cc5)c(=O)[nH]4)CC3)c(F)cc2c1=O"
  growth: "106% (inactive)"
- compound: "CC/C=C\\C[C@H](O)C/C=C1/C(=O)C=C[C@@H]1C/C=C\\CCCC(=O)NC"
  growth: "22.5% (inactive)"
- compound: "CCN(CC)CCC(=O)Nc1ccc(Cn2nnc3c2C(=O)c2nnn(Cc4ccc(NC(=O)CCN(CC)CC)cc4)c2C3=O)cc1"
  growth: "-83.4% (active)"
- compound: "O=C(N/N=C/c1ccc(O)cc1O)c1cccnc1"
  growth: "70.5% (inactive)"
- compound: "CCOC(=O)C(Cc1cc(I)c(O)c(I)c1)NC(=O)c1ccccc1 (centres undefined)"
  growth: "99.3% (inactive)"
- compound: "COC(=O)C12C3C(=O)N(c4ccc(OC)cc4)C(=O)C3C(c3cn(-c4ccccc4)nc3C)N1[C@H](c1cn(-c3ccccc3)nc1C)[C@@H]1C(=O)N(c3ccc(OC)cc3)C(=O)[C@@H]12 (some centres undefined)"
  growth: "91.1% (inactive)"
- compound: "CC[C@@H](C)OC(=O)c1nn(C(C)=O)c2ccccc12"
  growth: "100% (inactive)"
- compound: "CCCCCN(CCCCC)CCC[C@@H](C)[C@H]1CC[C@H]2[C@@H]3[C@H](OCCCN)C[C@@H]4C[C@H](OCCCN)CC[C@]4(C)[C@H]3C[C@H](OCCCN)[C@]12C"
  growth: "61% (inactive)"
- compound: "O=C1Nc2ccccc2/C1=C/C(=N/c1nnc(-c2ccc(Cl)cc2)s1)c1ccccc1"
  growth: "100% (inactive)"
- compound: "Cc1cc(N/N=C/c2nc(-c3ccc(Cl)cc3)oc2C)c2cc(Br)ccc2n1"
  growth: "41.6% (inactive)"
- compound: "O=C1CCc2c(sc3[nH]c(=S)n(Cc4ccccc4)c(=O)c23)C1"
  growth: "11.8% (inactive)"
- compound: "COc1cc(NCCCCN=C(N)NC(N)=NC(C)C)c2ncccc2c1"
  growth: "55.9% (inactive)"
- compound: "CCc1ccccc1NC(=O)c1sc2nc3c(cc2c1N)C(=O)CCC3"
  growth: "68.9% (inactive)"
- compound: "NC1=CSC2=N/C(=C\\c3ccc(Cl)cc3)C(=O)N12"
  growth: "87% (inactive)"
- compound: "CSc1ccc(N=C=C(c2ccccc2)c2ccccc2)cc1"
  growth: "91.7% (inactive)"
- compound: "CC/C=C\\C[C@H](F)C/C=C1/C(=O)C=C[C@@H]1C/C=C\\CCCC(=O)OC"
  growth: "34% (inactive)"
- compound: "Cc1noc(C)c1-c1cc(O)cc(C(O)c2ccccc2)c1 (centres undefined)"
  growth: "52.7% (inactive)"
- compound: "CN(C)CC(=O)Nc1ccc(Cn2nnc3c2C(=O)c2nnn(Cc4ccc(NC(=O)CN(C)C)cc4)c2C3=O)cc1"
  growth: "-75.1% (active)"
- compound: "COc1cc2c(=O)n(CC3CCCCC3)c3c4cc[nH]c4ncc3c2cc1OC"
  growth: "57.5% (inactive)"

----------
tested on: OVCAR-4 ovarian; assay: NCI-60 one-dose screen, 48 h; conditions: 10 µM unless noted
This is part of a sample that, as a whole, favours compounds with a hit. Of some 83,000 tested, about 20% had one in any assay. Active and inactive are the calls of the source. The calls were made as follows: active = growth percent below 10; inactive = the rest.
Classes used: yes (1) = active, no (0) = inactive

- compound: "O=C(Nc1cccc2[nH]c(C(F)(F)F)nc12)c1ccc(Br)cc1F"
  class label: "no (0)"
- compound: "CCC(c1ccc(O)cc1)C(CC)c1ccc(O)c(F)c1 (centres undefined)"
  class label: "no (0)"
- compound: "C=C(C[n+]1ccccc1)[C@@H]1CC[C@]2(C(=O)OC)CC[C@]3(C)[C@H](CC[C@@H]4[C@@]5(C)CC[C@H](O)C(C)(C)[C@@H]5CC[C@]43C)[C@@H]12"
  class label: "no (0)"
- compound: "COc1cc(OC)c(/C=C/S(=O)(=O)Cc2cnc(OC)c(N)c2)c(OC)c1"
  class label: "no (0)"
- compound: "CC/C(=C(\\c1ccccc1)c1ccc(OCCNC)cc1)c1ccccc1"
  class label: "yes (1)"
- compound: "COc1cc2c(c(OC)c1OC)-c1ccc(N=NC(N)=S)c(=O)cc1[C@@H](NC(C)=O)CC2"
  class label: "no (0)"
- compound: "COCCCN=C(N)c1ccc(NC(=O)c2ccc(C(=O)Nc3ccc(C(N)=NCCCOC)cc3)cc2)cc1"
  class label: "no (0)"
- compound: "NS(=O)(=O)N(c1cc(C(F)(F)F)cc(C(F)(F)F)c1)C1CCN(Cc2ccc(F)cc2)CC1"
  class label: "no (0)"
- compound: "CC1=N/C(=C\\c2cccc(Br)c2)C(=O)O1"
  class label: "no (0)"
- compound: "COc1cc(-c2cc(-c3nc4ccc(Cl)cc4[nH]3)[nH]n2)cc(OC)c1OC"
  class label: "no (0)"
- compound: "COc1ccc2nc3cc(Cl)ccc3c(N3CCN(c4ccnc(N5CCOCC5)n4)CC3)c2c1"
  class label: "no (0)"
- compound: "Nc1nc(-c2ccc(F)cc2)cc(-c2cnn(-c3ccccc3)n2)n1"
  class label: "no (0)"
- compound: "COc1cc(-c2c3sc(=O)[nH]c3nc3c2c(=O)[nH]n3C(C)C)cc2c1OCO2"
  class label: "no (0)"
- compound: "O=C(CNC1C2CC3CC(C2)CC1C3)Sc1nnc2sc3ccccc3n12 (centres undefined)"
  class label: "no (0)"
- compound: "CSc1ncnc2c1ncn2C1CCCO1 (centres undefined)"
  class label: "no (0)"
- compound: "O=c1c2cccc3c(Nc4ccccn4)ccc(c32)c2nc3ccccc3n12"
  class label: "no (0)"
- compound: "CC/C=C\\C[C@H](O)C/C=C1/C(=O)C=C[C@@H]1C/C=C\\CCCC(=O)OC(C)C"
  class label: "no (0)"
- compound: "COc1ccc(S(=O)(=O)NCCCNc2nccc(-c3c(-c4cccc(N)c4)nc4sccn34)n2)cc1"
  class label: "no (0)"
- compound: "CN1CCN(Cc2ccc(NC(=O)c3[nH]ncc3Nc3ccnc4ccsc34)cc2)CC1"
  class label: "no (0)"
- compound: "Cn1c(=O)c2c(ncn2CC[N+](C)(C)C)n(C)c1=O"
  class label: "no (0)"
- compound: "CN1CCN(Cc2ccc(NC(=O)c3cncc(C#Cc4cnc(N)c5cccnc45)c3)cc2C(F)(F)F)CC1"
  class label: "no (0)"
- compound: "O=C(Nc1ccc(Oc2ccc(F)cc2)c(Cl)c1)c1cccnc1"
  class label: "no (0)"
- compound: "Cc1ccc(Nc2c(C(N)=O)cnc3ccc(-c4csc(N)n4)cc23)cc1"
  class label: "no (0)"
- compound: "CCN(CC)C12CCCCC1(C)C(C#N)(C#N)C(C#N)=C(N)O2 (centres undefined)"
  class label: "no (0)"
- compound: "COc1cc2nc3cc([N+](=O)[O-])ccc3c(NCCCNCC(C)(C)O)c2cc1OC"
  class label: "yes (1)"
- compound: "Nc1c(C(=O)Nc2cccc3c2OCCO3)sc2nc3c(cc12)CN(Cc1ccccc1)CC3"
  class label: "no (0)"
- compound: "CN1CCCCC1CCN1c2ccccc2Sc2ccc(Cl)cc21 (centres undefined)"
  class label: "no (0)"
- compound: "CCN(CC)CCC(=O)Nc1ccc(Cn2nnc3c2C(=O)c2nnn(Cc4ccc(NC(=O)CCN(CC)CC)cc4)c2C3=O)cc1"
  class label: "yes (1)"
- compound: "COc1ccc(S(=O)(=O)NCCCNc2cc(-c3c(-c4cccc(OC)c4)nc4sccn34)ccn2)cc1"
  class label: "no (0)"
- compound: "Cc1ccc(S(=O)(=O)n2cc(-c3csc(-c4cn(C)c5ncccc45)n3)c3ccccc32)cc1"
  class label: "no (0)"
- compound: "CCN(C(=O)CN1CCN(c2cc3c(cc2F)c(=O)c(C(=O)O)cn3C2CC2)CC1)c1nc(-c2ccc(OC)cc2)cs1"
  class label: "no (0)"
- compound: "C=CCSc1nnc(-c2ccc(C(C)(C)C)cc2)n1-c1cccc(C(F)(F)F)c1"
  class label: "no (0)"
- compound: "Cc1cc(Nc2nc(-c3cccnc3)nc3ccccc23)n[nH]1"
  class label: "no (0)"
- compound: "CC(=O)C1=C(O)C=C2Oc3c(C(=O)/C=C/c4c(Cl)cccc4Cl)c(O)c(C)c(O)c3[C@]2(C)C1=O"
  class label: "yes (1)"
- compound: "Cc1cc(=O)oc2cc(Oc3nc(-c4cccs4)cn4c(-c5cccs5)cnc34)ccc12"
  class label: "no (0)"
- compound: "NC(CC(=O)O)C(=O)OCc1ccccc1 (centres undefined)"
  class label: "no (0)"
- compound: "CCOC(=O)C(Cc1cc(I)c(O)c(I)c1)NC(=O)c1ccccc1 (centres undefined)"
  class label: "no (0)"
- compound: "CC(=O)Nc1ccc2c(c1)c(NC(C)=O)nn2C(=O)Nc1ccc(Cc2ccccc2)cc1"
  class label: "no (0)"
- compound: "CCOC(=O)c1c2c(n3ccc(NC(=O)CCN4CCCCC4)cc13)C(=O)c1ncccc1C2=O"
  class label: "yes (1)"
